PROCEDURE TEXT: Acute oral toxicity (DL 50) in the albino mouse
APPLIED CONDITIONS: in vivo
PARAMETER: LD50

Input line: Look up LD50: CCOP(=S)(NCC=C(Cl)Cl)Oc1cc(Cl)c(Cl)cc1Cl (stereo not shown)
Output line: > 100 mg/kg

###

Tested on: Spodopt. Littoralis
PROCEDURE TEXT: Activity on Spodopt. Littoralis (Table II)
Format: in vivo
APPLIED CONDITIONS: 1 % a.p.
Mark yes (1) only for % mort. Spodopt. Littoralis values smaller than 20%; exact matches and larger values are no (0).

Answered cases to consult:
{"MOLECULE": "CSc1ccc(OP(=S)(OC(C)C)N(C)CC=C(Cl)Cl)cc1C (centres unmarked) [M 7471]", "TESTED TARGET": "Spodopt. Littoralis", "CLASS NAME": "yes (1)"}
{"MOLECULE": "COP(=S)(NCC=C(Cl)Cl)Oc1cc(Cl)c(Cl)cc1Cl (centres unmarked) [M 7160]", "TESTED TARGET": "Spodopt. Littoralis", "CLASS NAME": "no (0)"}
{"MOLECULE": "COP(=S)(Oc1ccc(SC)c(C)c1)N(C)CC=C(Cl)Cl (centres unmarked) [Example M7469]", "TESTED TARGET": "Spodopt. Littoralis", "CLASS NAME": "yes (1)"}
{"MOLECULE": "CSc1ccc(OP(=S)(NCC=C(Cl)Cl)OC(C)C)cc1C (centres unmarked) [Example M7468]", "TESTED TARGET": "Spodopt. Littoralis", "CLASS NAME": "yes (1)"}
{"MOLECULE": "CCOP(=S)(NCC=C(Cl)Cl)Oc1ccc(SC)c(C)c1 (centres unmarked) [M 7467]", "TESTED TARGET": "Spodopt. Littoralis", "CLASS NAME": "no (0)"}

Input line: Quick check: does COP(=S)(NCC=C(Cl)Cl)Oc1ccc(SC)c(C)c1 (centres unmarked) [M 7466] have % mort. Spodopt. Littoralis under 20%?
Output line: yes (1)

Input line: Bench note: check whether CCOP(=S)(Oc1ccc(SC)c(C)c1)N(C)CC=C(Cl)Cl (centres unmarked) [M 7470] shows % mort. Spodopt. Littoralis below 20%
Output line: no (0)

Input line: Just wondering, is % mort. Spodopt. Littoralis of CCOP(=S)(NCC=C(Cl)Cl)Oc1ccc([N+](=O)[O-])c(C)c1 (centres unmarked) [M 6986] below 20%?
Output line: yes (1)
